Hey, just so you know, these numbers are from the Deep4Chem optical property database.

# assay_text: solvent given as SMILES
# condition_details: in C1CCCCC1
We label by threshold. Values of emission maximum strictly beneath 400 nm are Condition met. Values of 400 nm and up are Condition not met.

Query: Does this molecule meet the criterion emission maximum < 400 nm? `CCn1c2ccccc2c2cc(/C=C/C(=O)c3ccc4c(c3)c3cc(C(=O)/C=C/c5ccc6c(c5)c5ccccc5n6CC)ccc3n4CC)ccc21`
Result: Condition not met

Query: Does this molecule meet the criterion emission maximum < 400 nm? `CN(C)c1ccc(/C=C/C=C/C=C/c2ccc(B(O)O)cc2)cc1`
Result: Condition not met

Query: Does this molecule meet the criterion emission maximum < 400 nm? `Cc1ccc(/C=C(\c2ccccc2)c2nc3ccccc3s2)cc1`
Result: Condition met

Query: Does this molecule meet the criterion emission maximum < 400 nm? `CCCC1(CCC)c2cc(-c3cccc(Cc4ccc(/C=C/c5ccccc5)cc4)c3)ccc2-c2ccc(-c3cccc(Cc4ccc(/C=C/c5ccccc5)cc4)c3)cc21`
Result: Condition met

Query: Does this molecule meet the criterion emission maximum < 400 nm? `CC(C)CCC[C@@H](C)[C@H]1CC[C@H]2[C@@H]3CC=C4C[C@@H](OC(=O)Oc5cc(/C=C/c6ccc(N(C)C)cc6)ccc5[N+](=O)[O-])CC[C@]4(C)[C@H]3CC[C@]12C`
Result: Condition not met

Query: Does this molecule meet the criterion emission maximum < 400 nm? `FC(F)(F)c1cc2n(n1)[B-]1(c3ccccc3Oc3ccccc31)[n+]1ccc3ccccc3c1-2`
Result: Condition not met

Query: Does this molecule meet the criterion emission maximum < 400 nm? `CC1(C)c2cc(C#N)ccc2-c2ccc(N3c4ccccc4Oc4ccccc43)cc21`
Result: Condition not met

Query: Does this molecule meet the criterion emission maximum < 400 nm? O=P1(c2ccccc2)C(c2cc(C(F)(F)F)cc(C(F)(F)F)c2)=Cc2c3ccc4cccc5ccc(c6cc(-c7ccccc7)n1c26)c3c45 (stereo unspecified)
Result: Condition not met

Query: Does this molecule meet the criterion emission maximum < 400 nm? `CC1=[N+]2C(=Cc3ccc(C)n3[B-]2(F)F)C=C1c1cc2n(c1)[B-](F)(F)[N+]1=CC=CC1=C2c1c(C)cc(C)cc1C`
Result: Condition not met

Query: Does this molecule meet the criterion emission maximum < 400 nm? `Cc1ccc(C2=C3C=CC(/C=C/c4ccccc4)=[N+]3[B-](F)(F)n3c(/C=C/c4ccccc4)ccc32)cc1`
Result: Condition not met

Query: Does this molecule meet the criterion emission maximum < 400 nm? COC(=O)C(Cc1ccc2oc(-c3ccc(-n4c5ccccc5c5ccccc54)cc3)nc2c1)NC(=O)OC(C)(C)C (stereo unspecified)
Result: Condition met

Query: Does this molecule meet the criterion emission maximum < 400 nm? `CC(=O)c1ccc(NC(=O)c2ccc(N(C)C)cc2)cc1`
Result: Condition met

Query: Does this molecule meet the criterion emission maximum < 400 nm? `CN(C)c1ccc(C(=O)Nc2cccc(Br)c2)cc1`
Result: Condition met

Query: Does this molecule meet the criterion emission maximum < 400 nm? `O=C1Cc2ccc(cc2)CC(=O)Cc2ccc(c3nsnc23)C1`
Result: Condition not met

Query: Does this molecule meet the criterion emission maximum < 400 nm? `CCCC1(CCC)c2cc(-c3ccc(C(C)(C)CC)cc3)ccc2-c2ccc(-c3ccc(C(C)(C)CC)cc3)cc21`
Result: Condition met

Query: Does this molecule meet the criterion emission maximum < 400 nm? `Nc1ccccc1`
Result: Condition met

Query: Does this molecule meet the criterion emission maximum < 400 nm? `c1ccc(N(c2ccccc2)c2ccc3c4cccc5c(N(c6ccccc6)c6ccccc6)ccc(c6cccc2c63)c54)cc1`
Result: Condition not met

Query: Does this molecule meet the criterion emission maximum < 400 nm? `Cc1ccc(/C(C#N)=C/c2cc(/C=C(\C#N)c3ccc(C)cc3)c(-c3ccc(N(c4ccccc4)c4ccccc4)cc3)cc2-c2ccc(N(c3ccccc3)c3ccccc3)cc2)cc1`
Result: Condition not met

Query: Does this molecule meet the criterion emission maximum < 400 nm? `CC1=[N+]2C(=C(Oc3ccccc3)c3ccc(C)n3[B-]2(F)F)C=C1c1cc2n(c1)[B-](F)(F)[N+]1=CC=CC1=C2c1c(C)cc(C)cc1C`
Result: Condition not met

---

# assay_text: solvent given as SMILES
# condition_details: in CN(C)C=O
experimental_endpoint: emission maximum (nm)
A number alone suffices; assume nm.

Query: Using the record for `Brc1ccc2[nH]c(-c3ccc(-c4ccc(-c5ccc(-c6nc7cc(Br)ccc7[nH]6)cc5)cc4)cc3)nc2c1` , report its emission maximum.
Result: 410

Query: Using the record for `O=C([O-])c1ccccc1C1=c2cc3c4c(c2Oc2c1cc1c5c2CCCN5CCC1)CCC[N+]=4CCC3` , report its emission maximum.
Result: 608

Query: Using the record for `CCC1(CC)c2cc(B(c3c(C)cc(C)cc3C)c3c(C)cc(C)cc3C)ccc2-c2ccc(N(c3ccccc3)c3ccccc3)cc21` , report its emission maximum.
Result: 532

Query: Using the record for `COc1ccc(/C=C/C(=O)c2ccccc2O)cc1OC` , report its emission maximum.
Result: 473

Query: Using the record for `O=C([O-])c1ccc(C(=O)[O-])c2cc3ccccc3cc12` , report its emission maximum.
Result: 430

Query: Using the record for `[C-]#[N+]c1ccc(-c2ccc(NC)cc2)cc1` , report its emission maximum.
Result: 435

Query: Using the record for `O=C1/C(=C2\Sc3ccccc3C2=O)Sc2ccccc21` , report its emission maximum.
Result: 607

Query: Using the record for `Nc1ccc2c(C(F)(F)F)cc(=O)oc2c1` , report its emission maximum.
Result: 480

Query: Using the record for CCOC(=O)C1=C(C)NC2=C(C(=O)c3ccccc32)C1c1ccc(N(C)C)cc1 (stereo not drawn) , report its emission maximum.
Result: 540

Query: Using the record for `CC(C)(C)c1cc(C(C)(C)C)c2oc3c(c2c1)C=CN1C(=O)C2=C4c5oc6c(C(C)(C)C)cc(C(C)(C)C)cc6c5C=CN4C(=O)C2=C31` , report its emission maximum.
Result: 658

Query: Using the record for `CC(C)(C)c1ccc2c(c1)c1cc(C(C)(C)C)ccc1n2-c1ccccc1-c1nc(-c2ccccc2P(=O)(c2ccccc2)c2ccccc2)nc(-c2ccccc2P(=O)(c2ccccc2)c2ccccc2)n1` , report its emission maximum.
Result: 539.75

Query: Using the record for `Cc1ccc(C2=C3C=c4c(oc5ccccc45)=[N+]3[B-](F)(F)n3c2cc2c4ccccc4oc23)cc1` , report its emission maximum.
Result: 598.5

Query: Using the record for `CN(c1ccccc1)c1ccc(/C=C2\C(=O)c3ccccc3S2(=O)=O)cc1` , report its emission maximum.
Result: 524

---

# assay_text: solvent given as SMILES
# condition_details: in CC#N
experimental_endpoint: emission maximum (nm)
A number alone suffices; assume nm.

Query: Using the record for `CN(C)c1ccc(/C=C/c2nc3ccc(Br)cc3nc2-c2ccccc2)cc1` , report its emission maximum.
Result: 648

Query: Using the record for `CC1(C)c2cc(C#N)ccc2-c2ccc(N3c4ccccc4Oc4ccccc43)cc21` , report its emission maximum.
Result: 620

Query: Using the record for `CCOC(=O)c1ccc2nc(/N=N/c3ccc(N(CC)CC)cc3)sc2c1` , report its emission maximum.
Result: 582

Query: Using the record for `COc1nc(Nc2ccc3ccc4cccc5ccc2c3c45)nc(OC)n1` , report its emission maximum.
Result: 390

Query: Using the record for `CCC1(CC)c2cc(N(C)C)ccc2-c2ccc(C(F)(F)F)cc21` , report its emission maximum.
Result: 337

Query: Using the record for `c1ccc2c(c1)c1ccccc1n2-c1ccc(-c2ccc(-c3ccc(-n4c5ccccc5c5ccccc54)nc3-n3c4ccccc4c4ccccc43)nn2)c(-n2c3ccccc3c3ccccc32)n1` , report its emission maximum.
Result: 474.18

Query: Using the record for `CN(C)c1ccc(-n2c(-c3ccc(C#N)cc3)nc3ccccc32)cc1` , report its emission maximum.
Result: 586

Query: Using the record for COc1ccc(-c2pc3ccccc3s2)cc1 (stereo not given) , report its emission maximum.
Result: 445

Query: Using the record for `CC1=CC(C)=[N+]2C1=C(c1ccccc1)c1c(C)cc(C)n1[B-]2(F)F` , report its emission maximum.
Result: 508

Query: Using the record for `CCC1(CC)c2cc(B(c3c(C)cc(C)cc3C)c3c(C)cc(C)cc3C)ccc2-c2c1c1c(c3c2C(CC)(CC)c2cc(B(c4c(C)cc(C)cc4C)c4c(C)cc(C)cc4C)ccc2-3)C(CC)(CC)c2cc(B(c3c(C)cc(C)cc3C)c3c(C)cc(C)cc3C)ccc2-1` , report its emission maximum.
Result: 403

---

# assay_text: solvent given as SMILES
# condition_details: in ClCCl
Give Criterion met when the value for emission maximum is at least 500 nm. Give Criterion not met when it is less.

Query: Quick check: does `COc1ccccc1C1=[N+]2C(=Cc3c4c(c(-c5ccccc5OC)n3[B-]2(F)F)C2CCC4CC2)C2=C1C1CCC2CC1` have emission maximum greater than or equal to 500 nm?
Result: Criterion met

Query: Quick check: does O=P1(c2ccccc2)C(c2ccc(C(F)(F)F)cc2)=Cc2cc3ccccc3cc21 (configuration not stated) have emission maximum greater than or equal to 500 nm?
Result: Criterion not met

Query: Quick check: does `C(=C\c1cnccn1)/c1ccc(N(c2ccccc2)c2ccc(/C=C/c3cnccn3)cc2)cc1` have emission maximum greater than or equal to 500 nm?
Result: Criterion met

Query: Quick check: does `Cc1cc(-c2ccc3ccccc3c2)cc(C)[o+]1` have emission maximum greater than or equal to 500 nm?
Result: Criterion met

Query: Quick check: does CCN(CC)c1ccc(/C=N/C2CCCCC2/N=C/c2ccc(N(CC)CC)cc2O)c(O)c1 (configuration not stated) have emission maximum greater than or equal to 500 nm?
Result: Criterion not met

Query: Quick check: does `O=S(=O)(c1ccc2c(c1)c1ccccc1n2-c1ccccc1)c1ccc2c(c1)c1ccccc1n2-c1ccccc1` have emission maximum greater than or equal to 500 nm?
Result: Criterion not met

Query: Quick check: does `CCn1c2ccccc2c2cc(C#Cc3cc(C#Cc4ccc5c(c4)c4ccccc4n5CC)nc(SC)n3)ccc21` have emission maximum greater than or equal to 500 nm?
Result: Criterion not met
